study system: T1, human NK2 Receptor (human, UniProt P21452 1-398)
T1 construct: whole, on cells; calcium assays used intact CHO-hNK2 cells; also called hNK2R; hNK2
T1 sequence (looked up): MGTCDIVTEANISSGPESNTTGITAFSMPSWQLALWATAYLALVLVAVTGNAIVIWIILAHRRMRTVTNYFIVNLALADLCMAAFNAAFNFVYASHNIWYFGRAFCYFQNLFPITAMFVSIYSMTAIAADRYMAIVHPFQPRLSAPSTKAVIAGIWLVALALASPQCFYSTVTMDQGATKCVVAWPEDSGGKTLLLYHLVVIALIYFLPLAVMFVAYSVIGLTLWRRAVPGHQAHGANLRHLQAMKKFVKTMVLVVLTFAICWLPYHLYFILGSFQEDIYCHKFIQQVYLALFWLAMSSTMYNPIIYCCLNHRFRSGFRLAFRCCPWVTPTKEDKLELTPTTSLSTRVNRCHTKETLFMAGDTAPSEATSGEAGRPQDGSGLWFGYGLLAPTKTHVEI
measurement notes: ratio of Ki hNK1R/hNK2R from the radioligand competition assays
Where no end group is shown, it is not given here. [ ]: non-standard residue; d: D form. NMeL = CN[C@@H](CC(C)C)C(=O)O; Nle = CCCC[C@H](N)C(=O)O
measurement name: log10 of hNK2 selectivity ratio (log10 of the value in ratio)
Would you kindly interpret these values as log10 of hNK2 selectivity ratio expressed in ratio?

- binder: "DRFVGLM-NH2 (synthetic heptapeptide analog of neurokinin A, Fmoc solid-phase synthesis; also called Compound H; Cmpd H) [Heptapeptide analog H, Asp-Arg-Phe-Val-Gly-Leu-Met-NH2]"
  log10 of hNK2 selectivity ratio: 1.43
- binder: "DRFVGLM (HELM PEPTIDE1{D.R.F.V.G.[meL].M.[am]}$$$$V2.0; N-terminus assumed; SMILES CSCC[C@H](NC(=O)[C@H](CC(C)C)N(C)C(=O)CNC(=O)[C@@H](NC(=O)[C@H](Cc1ccccc1)NC(=O)[C@H](CCCNC(=N)N)NC(=O)[C@@H](N)CC(=O)O)C(C)C)C(N)=O, synthetic heptapeptide analog of neurokinin A, Fmoc solid-phase synthesis; also called Compound C; Cmpd C) [Heptapeptide analog C, Asp-Arg-Phe-Val-Gly-(NMe-Leu)-Met-NH2]"
  log10 of hNK2 selectivity ratio: 2.22
- binder: "DKFVALM (HELM PEPTIDE1{D.K.F.V.[bAla].L.M.[am]}$$$$V2.0; N-terminus assumed; SMILES CSCC[C@H](NC(=O)[C@H](CC(C)C)NC(=O)CCNC(=O)[C@@H](NC(=O)[C@H](Cc1ccccc1)NC(=O)[C@H](CCCCN)NC(=O)[C@@H](N)CC(=O)O)C(C)C)C(N)=O, synthetic heptapeptide analog of neurokinin A, Fmoc solid-phase synthesis; also called Compound E; Cmpd E) [Heptapeptide analog E, Asp-Lys-Phe-Val-(β-Ala)-Leu-Met-NH2]"
  log10 of hNK2 selectivity ratio: 2.09
- binder: "DRFVG[NMeL][Nle]-NH2 (synthetic heptapeptide analog of neurokinin A, Fmoc solid-phase synthesis; also called Compound B; Cmpd B) [Heptapeptide analog B, Asp-Arg-Phe-Val-Gly-(NMe-Leu)-Nle-NH2]"
  log10 of hNK2 selectivity ratio: 2.75
- binder: "DRFVGLX (HELM PEPTIDE1{D.R.F.V.G.L.[Nle].[am]}$$$$V2.0; N-terminus assumed; SMILES CCCC[C@H](NC(=O)[C@H](CC(C)C)NC(=O)CNC(=O)[C@@H](NC(=O)[C@H](Cc1ccccc1)NC(=O)[C@H](CCCNC(=N)N)NC(=O)[C@@H](N)CC(=O)O)C(C)C)C(N)=O, synthetic heptapeptide analog of neurokinin A, Fmoc solid-phase synthesis; also called Compound J; Cmpd J) [Heptapeptide analog J, Asp-Arg-Phe-Val-Gly-Leu-Nle-NH2]"
  log10 of hNK2 selectivity ratio: 1.86

[Q] Using the record for DRFVALX (HELM PEPTIDE1{D.R.F.V.[bAla].L.[Nle].[am]}$$$$V2.0; N-terminus assumed; SMILES CCCC[C@H](NC(=O)[C@H](CC(C)C)NC(=O)CCNC(=O)[C@@H](NC(=O)[C@H](Cc1ccccc1)NC(=O)[C@H](CCCNC(=N)N)NC(=O)[C@@H](N)CC(=O)O)C(C)C)C(N)=O, synthetic heptapeptide analog of neurokinin A, Fmoc solid-phase synthesis; also called Compound K; Cmpd K) [Heptapeptide analog K, Asp-Arg-Phe-Val-(β-Ala)-Leu-Nle-NH2] , state its measured log10 of hNK2 selectivity ratio.
[A] 2.25
